Test system: MS2 coat protein
Assay: apparent KD of MS2 coat protein; designed switch direction (-1 OFF switch, 1 ON switch): -1; higher = weaker reporter binding
Conditions: input ligand: FMN 200 uM
Task for the reader: assign each of the following sequences its reported apparent KD of MS2 coat protein.
Enter your answer as a number in nM; do not include the unit.

Could you please provide reported apparent KD of MS2 coat protein for CUGAGUUCAGGAUAUACAUGAGGAUCACCCAUGUAAAGUAGCUUGCGUACAGGCAGAUGUAGAAGGGAAUUCGG [Mod of JL 6 - Jieux - Exclusion 3] (Eterna round: R97, puzzle: Exclusion 3) ? Thanks!
30.2

Could you please provide reported apparent KD of MS2 coat protein for AUAGGAGUAGGAUAUUCAGUUCGACACAUGAGGAUCACCCAUGUCGCUGUGGCCGGGCACGGAGAAGGAUUGUUGU [Eternabot (L1) Solution 15] (Eterna round: R97, puzzle: Exclusion 5) ? Thanks!
39.1

Could you please provide reported apparent KD of MS2 coat protein for CGGCAUGUAGAAGGAUAUCUGCACGUUUAGUGCAGAGAAGGUCUAACAUGAGGAUCACCCAUGUAGAUCAUUAACCGAUUAAUU [ENG1/8-A2] (Eterna round: R96, puzzle: Exclusion NG 1) ? Thanks!
19.5

Could you please provide reported apparent KD of MS2 coat protein for ACAUGUAUUGCAGGAUAUGGGACACAUGAGGAUCACCCAUGUGACUACAUGUCAUACCACGCGUCUCAGAAGGGUAUGUACAUG [Ex NG2 #39] (Eterna round: R96, puzzle: Exclusion NG 2) ? Thanks!
27.7

Could you please provide reported apparent KD of MS2 coat protein for UGUUAAGCAGGAUAUACGUUGUCCUAUUAAACUAGUGAAGGACAUGAGGAUCACCCAUGUAGAAGGGCUAAGCG [Eternabot (L2) Solution 70] (Eterna round: R97, puzzle: Exclusion 2) ? Thanks!
85.2
